Origin of the recorded values: patent US4282244A

- ASSAY SUMMARY: acute toxicity (LD50), rat
- Type: in vivo
- ASSAY SETUP: in vivo, ip, I.P., fumarate salt, expressed as free base, read-out: LD50 (95% Confidence Limits)
OUTCOME MEASURE: LD50

>>> experimental_result("CN(C(=O)c1ccc(N)cc1)C1CCN(C2CCCCC2)C1 (single isomer, unassigned; (-)) [(-)-isomer]")
"116 mg/kg"
>>> experimental_result("CN(C(=O)c1ccc(N)cc1)C1CCN(C2CCCCC2)C1 (racemic) [± racemate]")
"111 mg/kg"

====

LD50: recorded values
- ASSAY SUMMARY: acute toxicity (LD50), mouse
- Format: in vivo
- ASSAY SETUP: in vivo, po, P.O., fumarate salt, expressed as free base, read-out: LD50 (95% Confidence Limits)
OUTCOME MEASURE: LD50 (mg/kg)

>>> experimental_result("CN(C(=O)c1ccc(N)cc1)C1CCN(C2CCCCC2)C1 (single isomer, unassigned; (-)) [(-)-isomer]")
241
>>> experimental_result("CN(C(=O)c1ccc(N)cc1)C1CCN(C2CCCCC2)C1 (racemic) [± racemate]")
181

====

- ASSAY SUMMARY: acute toxicity (LD50), rat
- Format: in vivo
- ASSAY SETUP: in vivo, po, P.O., fumarate salt, expressed as free base, read-out: LD50 (95% Confidence Limits)
Measured LD50 accompanies every entry in the list below.
OUTCOME MEASURE: LD50 (mg/kg)

>>> experimental_result("CN(C(=O)c1ccc(N)cc1)C1CCN(C2CCCCC2)C1 (racemic) [± racemate]")
305
>>> experimental_result("CN(C(=O)c1ccc(N)cc1)C1CCN(C2CCCCC2)C1 (single isomer, unassigned; (-)) [(-)-isomer]")
410

====

- ASSAY SUMMARY: cataleptic effects (Tedeschi et al.)
- Type: in vivo, rat
- ASSAY SETUP: in vivo; rat, PO; fumarate salt, expressed as free base
OUTCOME MEASURE: NOAEL (mg/kg)

>>> experimental_result("CN(C(=O)c1ccc(N)cc1)C1CCN(C2CCCCC2)C1 (racemic) [± racemate]")
200
>>> experimental_result("CN(C(=O)c1ccc(N)cc1)C1CCN(C2CCCCC2)C1 (single isomer, unassigned; (+)) [(+)-isomer]")
200

====

- ASSAY SUMMARY: cataleptic effects (Tedeschi et al.)
- Format: in vivo, rat
- ASSAY SETUP: in vivo; rat, IP; footnote c; expressed as free base; read-out: Neurotoxic dose level evidenced by seizures in test animals
OUTCOME MEASURE: TD50 (mg/kg)

>>> experimental_result("CN(C(=O)c1ccc(N)cc1)C1CCN(C2CCCCC2)C1 (single isomer, unassigned; (-)) [(-)-isomer]")
100
>>> experimental_result("CN(C(=O)c1ccc(N)cc1)C1CCN(C2CCCCC2)C1 (racemic) [± racemate]")
100
